Assignment: determine reported AUC(0-inf) for the given compounds.
ASSAY DETAILS: Rat pharmacokinetics (CL, T1/2, AUC, F %)
Type: in vivo
STATED CONDITIONS: male Sprague-Dawley rats, single oral dose 5 mg/kg, plasma exposure, read-out: Rat PK AUCinf
One number for each entry, in ng·h/mL.

Some entries whose results are on file:
INPUT: Quick check: AUC(0-inf) of "Cc1cc(Nc2ncc3c(n2)N(C)CN(c2c(Cl)cccc2Cl)C3=O)ccc1N1CCNCC1" ?
OUTPUT: 1360

INPUT: Quick check: AUC(0-inf) of "Cc1cc(Nc2ncc3c(n2)N(C)CN(c2c(Cl)cccc2Cl)C3=O)ccc1C1CCNCC1" ?
OUTPUT: 120

INPUT: Quick check: AUC(0-inf) of "Cc1cc(Nc2ncc3c(n2)N(C)CN(c2c(Cl)cccc2Cl)C3=O)ccc1C1CCN(C)CC1" ?
OUTPUT: 1320

Continuing:
INPUT: Quick check: AUC(0-inf) of "CN1CCC(c2ccc(Nc3ncc4c(n3)N(C)CN(c3c(Cl)cccc3Cl)C4=O)cc2CO)CC1" ?
OUTPUT: 397

* * *

Assignment: determine reported Kp for the given compounds.
ASSAY DETAILS: Tumor:plasma concentration ratio in tumor-bearing mouse
Assay type: in vivo
STATED CONDITIONS: single oral dose 30 mg/kg, read-out: Mouse tissue distribution tumor/plasma ratio
One number for each entry.

INPUT: Quick check: Kp of "Cc1cc(Nc2ncc3c(n2)N(C)CN(c2c(Cl)cccc2Cl)C3=O)ccc1N1CCNCC1" ?
OUTPUT: 5.7

Now turn to the next compound.
INPUT: Quick check: Kp of "Cc1cc(Nc2ncc3c(n2)N(C)CN(c2c(Cl)cccc2Cl)C3=O)ccc1C1CCN(C)CC1" ?
OUTPUT: 4

* * *

SYSTEM UNDER TEST: Wee-1 kinase (Homo sapiens, UniProt P30291)
Sequence (P30291 whole entry): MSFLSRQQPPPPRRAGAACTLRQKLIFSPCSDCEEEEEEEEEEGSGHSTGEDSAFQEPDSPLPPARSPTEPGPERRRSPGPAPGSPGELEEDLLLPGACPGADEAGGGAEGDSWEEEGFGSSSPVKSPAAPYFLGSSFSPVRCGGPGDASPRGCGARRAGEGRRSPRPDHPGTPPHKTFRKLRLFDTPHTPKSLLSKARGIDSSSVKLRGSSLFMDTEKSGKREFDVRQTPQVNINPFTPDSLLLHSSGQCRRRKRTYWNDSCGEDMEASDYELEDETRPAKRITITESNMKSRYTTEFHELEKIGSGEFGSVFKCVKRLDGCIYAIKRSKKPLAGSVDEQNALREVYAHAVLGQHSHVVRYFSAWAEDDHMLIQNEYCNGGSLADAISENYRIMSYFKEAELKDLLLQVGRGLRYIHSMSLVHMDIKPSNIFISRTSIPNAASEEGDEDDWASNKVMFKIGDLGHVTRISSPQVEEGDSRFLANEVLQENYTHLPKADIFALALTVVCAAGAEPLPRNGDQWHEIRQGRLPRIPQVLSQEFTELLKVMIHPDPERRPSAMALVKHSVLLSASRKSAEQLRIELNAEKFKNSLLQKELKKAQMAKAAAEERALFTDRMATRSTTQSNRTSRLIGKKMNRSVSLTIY
ASSAY DETAILS: Wee-1 kinase inhibitory effect (Wee-1 IC50)
Type: biochemical
STATED CONDITIONS: read-out: Wee1 IC50
Simple rule here: IC50 less than 3 nM is true, otherwise false.

As a guide, the following entries are already answered.
INPUT: Is it true that IC50 reported for "Cc1cc(Nc2ncc3c(n2)N(C)CN(c2c(Cl)cccc2Cl)C3=O)ccc1N1CCNCC1" is less than 3 nM?
OUTPUT: true

INPUT: Is it true that IC50 reported for "COc1cc(Nc2ncc3c(n2)N(C)CN(c2c(Cl)cccc2Cl)C3=O)ccc1C1CCN(C)CC1" is less than 3 nM?
OUTPUT: false

INPUT: Is it true that IC50 reported for "Cc1cc(Nc2ncc3c(n2)N(C)CN(c2c(Cl)cccc2Cl)C3=O)ccc1C1=CCN(C)CC1" is less than 3 nM?
OUTPUT: false

INPUT: Is it true that IC50 reported for "Cc1cc(Nc2ncc3c(n2)N(C)CN(c2c(C)cccc2Cl)C3=O)ccc1C1CCN(C)CC1" is less than 3 nM?
OUTPUT: true

INPUT: Is it true that IC50 reported for "Cc1cc(Nc2ncc3c(n2)N(C)CN(c2c(Cl)cccc2Cl)C3=O)ccc1C1CCNCC1" is less than 3 nM?
OUTPUT: false

INPUT: Is it true that IC50 reported for "CN1CCC(c2ccc(Nc3ncc4c(n3)N(C)CN(c3c(Cl)cccc3Cl)C4=O)cc2)CC1" is less than 3 nM?
OUTPUT: false

Kindly review the next compound as well.
INPUT: Is it true that IC50 reported for "CN1CCC(c2ccc(Nc3ncc4c(n3)N(C)CN(c3c(Cl)cccc3Cl)C4=O)cc2CO)CC1" is less than 3 nM?
OUTPUT: false

* * *

ASSAY DETAILS: Rat pharmacokinetics (CL, T1/2, AUC, F %)
Assay type: in vivo
STATED CONDITIONS: plasma, male Sprague-Dawley rats, oral 5 mg/kg, intravenous 1 mg/kg, oral bioavailability, read-out: Rat PK F %
Assignment: determine reported bioavailability for the given molecules.
One number for each entry, in %.

Some entries whose results are on file:
INPUT: Quick check: bioavailability of "Cc1cc(Nc2ncc3c(n2)N(C)CN(c2c(Cl)cccc2Cl)C3=O)ccc1C1CCNCC1" ?
OUTPUT: 7

INPUT: Quick check: bioavailability of "Cc1cc(Nc2ncc3c(n2)N(C)CN(c2c(Cl)cccc2Cl)C3=O)ccc1N1CCNCC1" ?
OUTPUT: 41

INPUT: Quick check: bioavailability of "CN1CCC(c2ccc(Nc3ncc4c(n3)N(C)CN(c3c(Cl)cccc3Cl)C4=O)cc2CO)CC1" ?
OUTPUT: 8

Now turn to the next molecule.
INPUT: Quick check: bioavailability of "Cc1cc(Nc2ncc3c(n2)N(C)CN(c2c(Cl)cccc2Cl)C3=O)ccc1C1CCN(C)CC1" ?
OUTPUT: 35
